target_of_assay: T1, recombinant hMCAM-His (human, UniProt P43121 24-559)
T1 chain: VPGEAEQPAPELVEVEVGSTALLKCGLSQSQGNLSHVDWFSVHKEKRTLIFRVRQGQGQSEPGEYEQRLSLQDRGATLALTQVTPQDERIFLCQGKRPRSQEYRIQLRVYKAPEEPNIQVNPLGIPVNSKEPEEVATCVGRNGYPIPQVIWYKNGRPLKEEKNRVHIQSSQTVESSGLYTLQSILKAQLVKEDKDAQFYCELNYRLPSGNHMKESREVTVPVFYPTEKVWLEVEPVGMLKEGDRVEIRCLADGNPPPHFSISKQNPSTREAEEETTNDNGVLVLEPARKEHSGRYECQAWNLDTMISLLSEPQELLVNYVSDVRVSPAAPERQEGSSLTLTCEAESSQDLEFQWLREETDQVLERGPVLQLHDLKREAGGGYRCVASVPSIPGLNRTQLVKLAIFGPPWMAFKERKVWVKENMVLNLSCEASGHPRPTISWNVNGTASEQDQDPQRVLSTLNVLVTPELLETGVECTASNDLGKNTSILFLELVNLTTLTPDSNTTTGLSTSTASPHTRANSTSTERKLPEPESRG
assay_comment: competitive ELISA on coated hMCAM-His, competitor biotinylated rodent or chimeric 2120; IC50 relative to rodent 2120
As shown below, each of these binders has a reported Fold over rodent (ELISA) value.
Kindly provide the numeric value in fold only, without the unit symbol.

Req: Which Fold over rodent (ELISA) value belongs to humanized anti-MCAM antibody h2120_VH1 + h2120_VL1 (antibody, V domains shown, Human IgG1 / human kappa; also called h2120VH1VL1; Standard VH + standard VL) VH: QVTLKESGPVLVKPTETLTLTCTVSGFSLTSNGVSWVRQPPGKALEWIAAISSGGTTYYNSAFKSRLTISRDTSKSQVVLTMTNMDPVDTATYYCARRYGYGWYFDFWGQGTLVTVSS VL: DIQMTQSPSSLSASVGDRVTITCKASQNIYNSLAWYQQKPGKAPKVLIFNANSLQTGIPSRFSGSGSGTDFTLTISSLQPEDFATYYCQQFYSGYTFGQGTKLEIK ?
Resp: 3.1

Req: Which Fold over rodent (ELISA) value belongs to humanized anti-MCAM antibody h2120_VH1 + h2120_VL2 (antibody, V domains shown, Human IgG1 / human kappa; also called h2120VH1VL2; Standard VH + aggressive VL) VH: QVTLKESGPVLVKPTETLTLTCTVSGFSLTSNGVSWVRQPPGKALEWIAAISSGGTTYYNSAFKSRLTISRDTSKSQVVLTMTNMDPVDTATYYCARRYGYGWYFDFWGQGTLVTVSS VL: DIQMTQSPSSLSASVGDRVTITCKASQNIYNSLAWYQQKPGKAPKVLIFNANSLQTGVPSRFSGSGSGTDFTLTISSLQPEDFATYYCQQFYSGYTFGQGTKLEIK ?
Resp: 3.1

Req: Which Fold over rodent (ELISA) value belongs to humanized anti-MCAM antibody h2120_VH1 + h2120_VL3 (antibody, V domains shown, V regions cloned into vectors containing human CK (VL) or human IgG1 (VH); also called h2120VH1VL3; Standard VH + conservative VL) VH: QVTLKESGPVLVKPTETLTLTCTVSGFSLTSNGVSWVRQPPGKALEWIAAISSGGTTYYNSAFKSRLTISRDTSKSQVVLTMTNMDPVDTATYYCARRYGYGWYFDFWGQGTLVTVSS VL: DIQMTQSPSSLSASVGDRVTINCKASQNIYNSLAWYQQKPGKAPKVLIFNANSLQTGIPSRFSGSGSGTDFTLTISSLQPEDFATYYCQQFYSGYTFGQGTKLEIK ?
Resp: 1.8
